Hello, the source for this data is patent US20180185504A1, in case you need it.

Task for the reader: assign each of the following binders its reported kon.
Molecular target: T1, hPRLR.mFc (soluble dimeric human PRLR) (human)
T1 construct: dimeric PRLR construct
T1 chain: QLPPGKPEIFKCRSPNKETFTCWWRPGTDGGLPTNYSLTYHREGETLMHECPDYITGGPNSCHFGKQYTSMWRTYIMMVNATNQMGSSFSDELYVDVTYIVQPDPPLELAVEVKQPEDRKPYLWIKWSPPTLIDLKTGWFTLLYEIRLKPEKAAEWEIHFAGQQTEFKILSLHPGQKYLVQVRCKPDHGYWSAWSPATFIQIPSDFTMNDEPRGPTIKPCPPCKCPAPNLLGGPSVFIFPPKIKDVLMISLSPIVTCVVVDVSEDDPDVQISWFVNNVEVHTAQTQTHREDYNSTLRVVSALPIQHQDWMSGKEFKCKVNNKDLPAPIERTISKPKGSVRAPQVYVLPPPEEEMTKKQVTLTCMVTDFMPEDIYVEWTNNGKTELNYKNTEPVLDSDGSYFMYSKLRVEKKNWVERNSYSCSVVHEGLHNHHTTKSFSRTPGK
Assay: SPR Biacore, 25 C, mAb capture
Give me the value, and tack the unit on after it.

>>> observed_value("H1H6762P (antibody, human IgG1, V domains shown, Human IgG1 Fc (H1H)) VH: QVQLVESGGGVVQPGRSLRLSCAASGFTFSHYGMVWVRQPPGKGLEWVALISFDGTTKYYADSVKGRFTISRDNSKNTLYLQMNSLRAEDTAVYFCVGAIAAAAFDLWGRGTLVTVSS VL: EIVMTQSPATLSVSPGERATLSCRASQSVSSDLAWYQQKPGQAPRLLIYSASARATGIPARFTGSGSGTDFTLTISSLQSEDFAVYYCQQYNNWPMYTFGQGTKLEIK")
"651000 M⁻¹ s⁻¹"

Batch of 2 binders: report kon for each.
1. H1H6804P (antibody, human IgG1, V domains shown, Human IgG1 Fc (H1H)) VH: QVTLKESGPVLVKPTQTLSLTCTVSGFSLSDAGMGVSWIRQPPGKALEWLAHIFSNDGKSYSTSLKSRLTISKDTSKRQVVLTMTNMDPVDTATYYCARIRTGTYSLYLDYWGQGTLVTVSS VL: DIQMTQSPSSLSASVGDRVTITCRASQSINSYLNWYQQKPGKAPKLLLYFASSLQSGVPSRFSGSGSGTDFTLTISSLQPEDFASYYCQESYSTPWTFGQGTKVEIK
2. H1H6793P (antibody, human IgG1, V domains shown, Human IgG1 Fc (H1H)) VH: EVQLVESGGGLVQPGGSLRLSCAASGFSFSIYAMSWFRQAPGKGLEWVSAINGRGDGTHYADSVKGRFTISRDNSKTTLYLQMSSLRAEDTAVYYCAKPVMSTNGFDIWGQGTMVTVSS VL: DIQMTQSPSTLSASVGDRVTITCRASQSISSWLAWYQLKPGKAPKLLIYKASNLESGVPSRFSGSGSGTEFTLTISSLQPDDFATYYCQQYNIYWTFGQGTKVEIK

["451000 M⁻¹ s⁻¹", "229000 M⁻¹ s⁻¹"]
